Target: RORC2 ligand binding domain (6-His-RORC2 LBD) (Homo sapiens)
Sequence (P51449 269-508 limits assumed): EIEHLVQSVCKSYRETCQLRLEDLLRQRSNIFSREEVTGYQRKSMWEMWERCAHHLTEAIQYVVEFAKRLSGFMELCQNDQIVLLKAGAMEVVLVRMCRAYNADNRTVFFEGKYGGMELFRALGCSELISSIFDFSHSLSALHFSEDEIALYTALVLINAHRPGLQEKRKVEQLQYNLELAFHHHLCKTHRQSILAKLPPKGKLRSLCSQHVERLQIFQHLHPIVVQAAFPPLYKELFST
quantity kind: pIC50
Reminder that pIC50 means the negative base-10 logarithm of the concentration expressed in mol/L.

get_value(item= Cn1cc(C2CCN(C(=O)C3CCCO3)CC2)c2cc(NC(=O)c3cc(C#N)ccn3)ccc21 (stereo not shown) , readout=pIC50) returns 7.50

get_value(item= Cn1cc(C2CCN(C(=O)C3CCCC3)CC2)c2cc(NC(=O)N3CCOC(C#N)C3)ccc21 (stereo not shown) , readout=pIC50) returns 6.37

get_value(item= `O=C(Nc1ccc2[nH]cc(C3CCN(C(=O)C4CCCC4)CC3)c2c1)c1ccccc1F` , readout=pIC50) returns 6.04

get_value(item= Cn1cc(C2CCN(C(=O)C3CCCC3)C2)c2cc(NC(=O)c3cccc(C#N)c3)ccc21 (stereo not shown) , readout=pIC50) returns 6.70

get_value(item= `COCC(=O)N1CCC(c2cn(C)c3ccc(NC(=O)c4cc(C#N)ccn4)cc23)CC1` , readout=pIC50) returns 7.00

get_value(item= Cn1cc(C2CCN(C(=O)C(O)C(F)(F)F)CC2)c2cc(NC(=O)c3cc(C#N)ccn3)ccc21 (stereo not shown) , readout=pIC50) returns 6.48

get_value(item= `Cn1cc(C2CCN(C(=O)C3CCCC3)CC2)c2cc(NS(=O)(=O)c3ccc(C#N)cc3)ccc21` , readout=pIC50) returns 7.62

get_value(item= `N#Cc1ccc(F)c(C(=O)Nc2ccc3[nH]cc(C4CCN(C(=O)C5CCCC5)CC4)c3c2)c1` , readout=pIC50) returns 6.49

get_value(item= Cn1cc(C2CCN(C(=O)C3CC3(F)F)CC2)c2cc(NC(=O)c3cc(C#N)ccn3)ccc21 (stereo not shown) , readout=pIC50) returns 7.45

get_value(item= `CC1CCN(S(=O)(=O)Nc2ccc3c(c2)c(C2CCN(C(=O)C4CCCC4)CC2)cn3C)CC1` , readout=pIC50) returns 8.31

get_value(item= `Cn1cc(C2CCN(C(=O)C34CC(C3)C4)CC2)c2cc(NC(=O)c3cc(C#N)ccn3)ccc21` , readout=pIC50) returns 6.92

get_value(item= Cn1cc(C2CCN(C(=O)C3CCCOC3)CC2)c2cc(NC(=O)c3cc(C#N)ccn3)ccc21 (stereo not shown) , readout=pIC50) returns 7.80

get_value(item= `Cc1c(NC(=O)c2cccc(C#N)c2)ccc2c1c(C1CCN(C(=O)C[C@@H](O)C(F)(F)F)CC1)cn2C` , readout=pIC50) returns 7.85

get_value(item= `Cn1cc(C2CCN(C(=O)C3CCCC3)CC2)c2cc(NS(=O)(=O)c3ccccc3)ccc21` , readout=pIC50) returns 8.19

get_value(item= `Cn1cc(C2CCN(C(=O)[C@H]3CC[C@H](O)CC3)CC2)c2cc(NC(=O)c3cc(C#N)ccn3)ccc21` , readout=pIC50) returns 5.85

get_value(item= `Cn1cc(C2CCN(C(=O)C[C@@H](O)C(F)(F)F)CC2)c2cc(NS(=O)(=O)c3ccc(F)cc3)ccc21` , readout=pIC50) returns 8.01

Recorded values, source patent US20160046597A1.
